Origin of measurements: patent US7378415B2

Counter-ions that a name gives are not always drawn.
Below is a list of entries, each paired with its recorded melting point value.

Some molecules with recorded melting point:
- NCCN1C(=O)COc2cc(S(=O)(=O)c3ccccc3)ccc21 (as salt: hydrochloride): 206.9 to 209.1 °C
- CNCCC(=O)N1CCOc2ccc(S(=O)(=O)c3ccccc3)cc21 (as salt: hydrochloride): 208.3 to 214.7 °C
- CNCCCN1CCOc2cc(S(=O)(=O)c3ccccc3)ccc21 (as salt: hydrochloride): 188.3 to 193.2 °C
- O=C(C1CNC1)N1CCOc2cc(S(=O)(=O)c3ccccc3)ccc21 (as salt: hydrochloride): 182 to 186.6 °C

Which value of melting point has been reported for CNCC(=O)N1CCOc2ccc(S(=O)(=O)c3ccccc3)cc21 (as salt: hydrochloride) in the records? 233 to 235.5 °C

Which value of melting point has been reported for CN(C)CCCN1C(=O)COc2cc(S(=O)(=O)c3ccccc3)ccc21 (as salt: HCl) in the records? 194 to 196.4 °C

Which value of melting point has been reported for CN(C)CCN1C(=O)COc2cc(S(=O)(=O)c3ccccc3)ccc21 (as salt: HCl) in the records? 232.9 to 235.3 °C
